Give solubility kinetic for every item shown.
applied_conditions: buffer; pH 7.4; 200.0 µM

Let me know recorded solubility kinetic for `C=CCON1C(=O)C(=O)N(OCC=C)[C@H]2CCCC[C@H]21` , thanks. > 42 µg/mL

Provide only the value of recorded solubility kinetic for `Cc1cccc(CC(=O)NCCN2CCOCC2)c1` > 39.4 µg/mL

Give the reported value of solubility kinetic for this record: `Nc1cccc(/C=C/C(=O)O)c1` > 24.5 µg/mL

Answer with the recorded solubility kinetic of `O=C(O)c1ccc2c(c1)CCCN2` only. > 26.6 µg/mL

Please give the documented solubility kinetic of `Cn1c(N)c(C(=O)COC(=O)c2ccccc2C(=O)c2ccc(Cl)c([N+](=O)[O-])c2)c(=O)n(C)c1=O` 3.2 µg/mL

Read off the recorded solubility kinetic for `CC1(C)Cc2cccc(OCC(=O)NCc3ccccc3)c2O1` > 46.7 µg/mL

---

applied_conditions: buffer; pH 7.4; 200.0 µM
Short version: solubility kinetic at least 20 µg/mL is yes (1), less is no (0).

Check this compound for solubility kinetic at or above 20 µg/mL: `O=C(O/N=C1\CCCc2ccccc21)c1cccs1` no (0)

Has `Nc1cccc([N+](=O)[O-])c1` a recorded solubility kinetic greater than or equal to 20 µg/mL? no (0)

hey, is solubility kinetic for this one >= 20 µg/mL? `CC(=O)c1cn(CCOc2cc(C)ccc2C)c2ccccc12` no (0)

Reported solubility kinetic reaches at least 20 µg/mL for `Cc1onc(-c2ccccc2Cl)c1C(=O)N1CCN(C=O)CC1` ? yes (1)

Quick check, solubility kinetic >= 20 µg/mL? `Cc1ccccc1C(=O)NCCCNC(=O)c1cnccn1` yes (1)

Item `COC(=O)Nc1nc(-c2ccc(F)cc2)c(C)s1` with solubility kinetic of 20 µg/mL or above? no (0)

Is reported solubility kinetic greater than or equal to 20 µg/mL here: `COc1ccc(NC(=S)NC(=O)/C=C/c2ccccc2)cc1` no (0)

Does the compound `COc1cccc(OC)c1C(=O)NC(=O)Oc1c(F)cccc1F` have recorded solubility kinetic that is 20 µg/mL or more? yes (1)

I'd appreciate it if you could say whether `CCN1CCN(c2oc(/C=C/c3ccccc3)nc2C#N)CC1` has solubility kinetic at least equal to 20 µg/mL. yes (1)

Does the compound COc1cc2c(cc1OC)C(C)N(C(=O)Nc1ccccc1)CC2 (stereo not drawn) have recorded solubility kinetic that is 20 µg/mL or more? yes (1)

Is reported solubility kinetic greater than or equal to 20 µg/mL here: `Cc1c(C(=O)OCC(=O)N2CCCC2)cccc1[N+](=O)[O-]` yes (1)

State whether the measured solubility kinetic reaches 20 µg/mL, counting equality as reaching it, for `COc1cc(NC(=O)CCCN2C(=O)NC(C)(C)C2=O)cc(OC)c1` yes (1)

Please check the record Cl.OC(COCc1ccccc1F)CN1CCCCC1 (stereo not drawn) and state if its solubility kinetic is at or above 20 µg/mL. yes (1)

Could you tell me if the measured solubility kinetic of `N#Cc1c(-c2ccco2)ccn(Cc2cccc(F)c2)c1=O` reaches 20 µg/mL or more? no (0)

Determine whether measured solubility kinetic meets or exceeds 20 µg/mL for `CCc1ccc(OC(=O)CN2C(=O)c3ccccc3C2=O)cc1` yes (1)

In plain terms: is recorded solubility kinetic at least 20 µg/mL for `O=C(/C=C/c1ccccn1)c1cc(Cl)cc(Cl)c1O` ? no (0)

Hi team, for CCN1CCN(C(=O)NC2CC(=O)N(c3ccc(OC)cc3)C2)CC1 (stereo not drawn) , is the recorded solubility kinetic at or above 20 µg/mL? yes (1)

API: above_or_equal(metric=solubility kinetic, cutoff=20 µg/mL) for item `CC(C)C(=O)Nc1ccccc1-c1nc2ccccc2[nH]c1=O` yes (1)

Determine whether this compound has solubility kinetic no lower than 20 µg/mL: `CC(C)(C)C(=O)O/N=C(\N)c1ccc(Oc2cc(Cl)cc(Cl)c2)c([N+](=O)[O-])c1` no (0)

Is solubility kinetic at least 20 µg/mL? Consider CC1CCCCN1CC(O)COCc1ccccc1.Cl (stereo not drawn) yes (1)

Could you please find out whether `Cc1cccc(NC(=O)NCCCCc2ccccc2)c1` has solubility kinetic that meets 20 µg/mL or exceeds it? no (0)

Does solubility kinetic meet or surpass 20 µg/mL for `Cc1ccccc1NC(=O)COc1ccccc1C` ? no (0)

Confirm if solubility kinetic reported for the compound `Cc1cccc(NC(=S)NC(=O)c2oc3ccccc3c2C)n1` is 20 µg/mL or above. no (0)

Would you say `O=C(CN1C(=O)NC2(CCCCCCC2)C1=O)NCc1ccc(Cl)cc1` shows solubility kinetic at minimum 20 µg/mL? no (0)

Please indicate if the recorded solubility kinetic for O=C(NC(O)C(=O)c1ccc(F)cc1)c1ccc(F)cc1 (stereo not drawn) meets or exceeds 20 µg/mL. yes (1)

Identify whether the reported solubility kinetic of the following compound is 20 µg/mL or greater: `O=[N+]([O-])c1cccc2c(S(=O)(=O)N3CCOCC3)cccc12` yes (1)

Does Cc1ccc(C)c(NC(=O)CCN2CCCC(C)C2)c1 (stereo not drawn) have a reported solubility kinetic of at least 20 µg/mL? yes (1)

Hello, I need to know if `NC(=S)Nc1ccc(F)c(F)c1F` has measured solubility kinetic not below 20 µg/mL. Thanks! yes (1)

Determine whether this compound has solubility kinetic no lower than 20 µg/mL: Cc1ccc(/C=C(\C#N)C(=O)NC(C)c2ccccc2)o1 (stereo not drawn) no (0)

Reported solubility kinetic reaches at least 20 µg/mL for `C#CCn1cc(Cl)cc(C(=O)Nc2ccccc2)c1=O` ? no (0)

Identify whether the reported solubility kinetic of the following compound is 20 µg/mL or greater: CC(=O)N/C(=C\c1ccccc1)C(=O)OCC(=O)N(C)C1CCS(=O)(=O)C1 (stereo not drawn) yes (1)

Kindly determine if solubility kinetic recorded for `c1ccc(-c2ccccc2OCCN2CCCC2)cc1` is above or exactly 20 µg/mL. yes (1)

Evaluate `O=C(NC1CCCCC1)c1cccnc1Sc1ccccc1` : solubility kinetic at minimum 20 µg/mL? no (0)

Please tell me: is the compound CCC(C(=O)Nc1nc(C)c(C)s1)c1ccccc1 (stereo not drawn) at or over 20 µg/mL in terms of solubility kinetic? yes (1)

API: above_or_equal(metric=solubility kinetic, cutoff=20 µg/mL) for item `O=C(O)c1cnn2c(-c3ccccc3)ccnc12` yes (1)

In plain terms: is recorded solubility kinetic at least 20 µg/mL for `CN1C(=O)C(=Cc2cccnc2)C(=O)N(C)C1=O` ? yes (1)

For this compound, is measured solubility kinetic 20 µg/mL or higher? COC(=O)c1ccccc1NC(=O)c1ccc2c(c1)CC(C)O2 (stereo not drawn) no (0)

Hi, just wondering whether `Cc1cccc(NCc2cccc3ccccc23)n1` shows solubility kinetic of 20 µg/mL or higher. no (0)

---

applied_conditions: buffer; pH 7.4; 200.0 µM
Assign solubility kinetic to each entry below.

Report solubility kinetic for COc1ccccc1CNC(=O)C1(C)Oc2cccnc2NC1=O (stereo not given) > 49.1 µg/mL

Read the entry `CN1CCC(N(C)C(=S)NCCc2ccccc2)CC1` and write its reported solubility kinetic. > 43.7 µg/mL

Let me know recorded solubility kinetic for `O=C(CSc1nnc2ccccn12)c1ccc(Cl)cc1` , thanks. > 45.6 µg/mL

Respond only with solubility kinetic recorded for `O=C(NC1CCCCC1)c1cc(-c2ccc(F)cc2)on1` < 0.3 µg/mL

Tell me solubility kinetic reported for `Cc1ccc(OCCCCCCN2CCNCC2)cc1.O=C(O)C(=O)O` > 55 µg/mL

Look up solubility kinetic of `CCCNC(=O)CCn1c(=S)oc2ccccc21` and report it. > 39.7 µg/mL

Given `O=C(Nc1ccccc1C(=O)N1CCCCC1)c1ccco1` , respond with its solubility kinetic. > 44.8 µg/mL

Give solubility kinetic for `CCOCCCNCc1cc(Br)ccc1OCC.Cl` > 52.9 µg/mL

Let me know recorded solubility kinetic for `Cc1ccc(S(=O)(=O)CCc2nc3ccccc3[nH]2)cc1C` , thanks. > 47.2 µg/mL

Query solubility kinetic for `Cc1cc(C(=O)OCC(=O)NC2(C#N)CCCCC2)c(C)o1` > 45.7 µg/mL

Given `O=C(Nc1nc2ccccc2s1)c1ccc([N+](=O)[O-])o1` , respond with its solubility kinetic. < 0.2 µg/mL

Let me know recorded solubility kinetic for `O=C(CCN1CCN(c2ccccc2F)CC1)Nc1ccccc1Cl` , thanks. > 54.3 µg/mL

Tell me solubility kinetic reported for `Cc1cc(=O)[nH]c(SCC(=O)Nc2nc3ccccc3s2)n1` > 49.9 µg/mL

For the compound `NC(=O)CN(Cc1ccccc1)S(=O)(=O)c1ccc2c(c1)OCCO2` , report solubility kinetic. > 54.4 µg/mL

# return recorded solubility kinetic for input CCOc1ccccc1NC(=O)C1COc2ccccc2O1 (stereo not given) < 0.6 µg/mL

// Input: Cc1ccc(-c2cc(C(=O)N3CC4(C)CC3CC(C)(C)C4)no2)cc1 (stereo not given) . Output its solubility kinetic only. < 0.4 µg/mL

Provide solubility kinetic value for the following compound: CC(NC(=O)CCC(=O)c1ccccc1)c1ccc(F)cc1 (stereo not given) > 44.9 µg/mL

Provide one value: measured solubility kinetic of `COc1cc(C)ccc1OCC(=O)OCC(=O)NCC1CCCCC1` > 52.4 µg/mL

Report solubility kinetic, nothing else, for this compound: CC1CCC(NC(=O)C2CC(O)CN2S(=O)(=O)c2ccc([N+](=O)[O-])cc2)CC1 (stereo not given) > 61.7 µg/mL

Input `Cc1cc(C)nc(NC(=O)c2c(Cl)cccc2Cl)n1` , output reported solubility kinetic. > 44.4 µg/mL
